protocol.summary: equilibrium solubility-pH, direct-UV microtitre plate (μSOL Evolution) with and without excipients
applied.conditions: aqueous universal buffer (pION), saturated drug suspension, pKa^APP ± SD, apparent ionization constant; excipient 1% HP-b-CD
measured.property: pKa at 18 h

[[record]]
structure_smiles = "OCCN(CCO)c1nc(N2CCCCC2)c2nc(N(CCO)CCO)nc(N3CCCCC3)c2n1"
data_value = 5.6


[a] Cc1cccc(Nc2ccccc2C(=O)O)c1C
[b] CCCCN(CCCC)CCCOC(=O)c1ccc(N)cc1
Asked: # compare pKa at 18 h for a vs b ; return the one with the smaller value // caller expects the label of the chosen entry
Given back: a
(a: 5.2, b: 8.1)

###

protocol.summary: Double-Sink PAMPA permeability with and without excipients
applied.conditions: apparent/true molecular weight, 40 μm ABL assumed; 0 mM NaTC (first value)
measured.property: MW*/MW

[[record]]
structure_smiles = "CCCCN(CCCC)CCCOC(=O)c1ccc(N)cc1"
measured_property = "MW*/MW"
data_value = 4

[[record]]
structure_smiles = "Cc1cccc(Nc2ccccc2C(=O)O)c1C"
measured_property = "MW*/MW"
data_value = 4


###

protocol.summary: equilibrium solubility-pH, direct-UV microtitre plate (μSOL Evolution) with and without excipients
applied.conditions: aqueous universal buffer (pION), saturated drug suspension, pKa^APP ± SD, apparent ionization constant in saturated solution; excipient none
measured.property: pKa at 18 h

[[record]]
structure_smiles = "Cc1cccc(Nc2ccccc2C(=O)O)c1C"
measured_property = "pKa at 18 h"
data_value = 4.3


[P] OCCN(CCO)c1nc(N2CCCCC2)c2nc(N(CCO)CCO)nc(N3CCCCC3)c2n1
[Q] CCCCN(CCCC)CCCOC(=O)c1ccc(N)cc1
Asked: # compare pKa at 18 h for P vs Q ; return the one with the smaller value // caller expects the label of the chosen entry
Given back: P

###

protocol.summary: equilibrium solubility-pH, direct-UV microtitre plate (μSOL Evolution) with and without excipients
applied.conditions: aqueous universal buffer (pION), 25 °C, aqueous buffer, kinetic from dmso stock
measured.property: solubility at 18 h (µg/mL)
Field format: number, assumed µg/mL, no unit text.

Asked: What value of solubility at 18 h has been recorded for this entry: `Cc1cccc(Nc2ccccc2C(=O)O)c1C`
Given back: 0.021

###

protocol.summary: Double-Sink PAMPA permeability with and without excipients
applied.conditions: 15 mM NaTC (third value)
measured.property: MW*/MW

[[record]]
structure_smiles = "Cc1cccc(Nc2ccccc2C(=O)O)c1C"
measured_property = "MW*/MW"
data_value = 4


[1] COc1ccc(CCN2CCC(Nc3nc4ccccc4n3Cc3ccc(F)cc3)CC2)cc1
[2] OCCN(CCO)c1nc(N2CCCCC2)c2nc(N(CCO)CCO)nc(N3CCCCC3)c2n1
Asked: Which of the two gives a bigger number for MW*/MW: 1 or 2 ? // caller expects the label of the chosen entry
Given back: 1
(1: 56000, 2: 1100)

###

applied.conditions: PAMPA, 30 min, 50 μM
measured.property: PABL 15 mM NaTC

[[record]]
structure_smiles = "Cc1cccc(Nc2ccccc2C(=O)O)c1C"
data_value = 795

[[record]]
structure_smiles = "CCCCN(CCCC)CCCOC(=O)c1ccc(N)cc1"
data_value = 13


[P] COc1ccc(CCN2CCC(Nc3nc4ccccc4n3Cc3ccc(F)cc3)CC2)cc1
[Q] OCCN(CCO)c1nc(N2CCCCC2)c2nc(N(CCO)CCO)nc(N3CCCCC3)c2n1
Asked: # compare PABL 15 mM NaTC for P vs Q ; return the one with the smaller value // caller expects the label of the chosen entry
Given back: P
